Counter-ions that a name gives are not always drawn.
Below, each entry is listed alongside its reported melting point.
Quick reminder: number only, in °C, skip the unit.

For orientation, consider the following solved cases.
compound	u	melting point
N#Cc1ccccc1N1CCN(CCCCNC(=O)C2=Cc3ccccc3OC2)CC1 (as salt: HCl)	°C	194
O=C(NCCCCN1CCN(c2ccc(C(F)(F)F)cc2)CC1)C1=Cc2ccccc2OC1 (as salt: HCl)	°C	261.9
O=C(NCCCCN1CCN(c2ccccc2Cl)CC1)C1=Cc2ccccc2OC1 (as salt: HCl)	°C	201
COc1ccc2c(c1)C=C(C(=O)NCCCCN1CCN(c3cccc(C#N)c3)CC1)CO2 (as salt: HCl)	°C	159
N#Cc1ccc(N2CCN(CCCCNC(=O)C3=Cc4ccccc4OC3)CC2)cc1 (as salt: HCl)	°C	212
N#Cc1cccc(N2CCN(CCCCNC(=O)C3=Cc4ccccc4SC3)CC2)c1 (as salt: HCl)	°C	209

Shift focus to the following entry.
Given the compound O=C(NCCCCN1CCN(c2ccccc2F)CC1)C1=Cc2ccccc2SC1 (as salt: HCl) , write its reported melting point.
212
